In this section we review reported Activity at Protein Kinase Assays (% of control), MKK6(h) values for a set of molecules.
Target: UniProtKB P52564
Sequence (P52564 1-334): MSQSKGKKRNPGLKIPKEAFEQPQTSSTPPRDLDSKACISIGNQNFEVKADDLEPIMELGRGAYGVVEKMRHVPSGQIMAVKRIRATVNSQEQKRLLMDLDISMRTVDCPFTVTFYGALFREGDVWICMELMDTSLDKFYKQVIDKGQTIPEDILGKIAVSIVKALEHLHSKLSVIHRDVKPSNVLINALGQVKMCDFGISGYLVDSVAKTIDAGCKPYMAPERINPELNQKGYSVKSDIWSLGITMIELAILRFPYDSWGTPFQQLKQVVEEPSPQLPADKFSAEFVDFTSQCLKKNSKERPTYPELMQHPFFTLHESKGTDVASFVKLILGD
Test: Protein kinase selectivity panel
Assay type: biochemical
Details: 1.0 μM compound, 10 μM ATP

Examples from the recorded data:
Annotate the molecule `CN(C)c1cc2cc(n1)CCCn1cc(c3ccccc31)C1=C(C(=O)NC1=O)c1cn(c3ccccc13)CCC2` with its measured Activity at Protein Kinase Assays (% of control), MKK6(h).
86 % of control

Annotate the molecule `O=C1NC(=O)C2=C1c1cn(c3ccccc13)CCCc1ccc(c(N3CCCC3)n1)CCCn1cc2c2ccccc21` with its measured Activity at Protein Kinase Assays (% of control), MKK6(h).
85 % of control

Annotate the molecule `O=C1NC(=O)C2=C1c1cn(c3ccccc13)CCCc1cc(nc(N3CCCC3)c1)CCCn1cc2c2ccccc21` with its measured Activity at Protein Kinase Assays (% of control), MKK6(h).
91 % of control

We next turn to a different molecule, shown below.
Annotate the molecule `CN(C)c1nc2ccc1CCCCn1cc(c3ccccc31)C1=C(C(=O)NC1=O)c1cn(c3ccccc13)CCC2` with its measured Activity at Protein Kinase Assays (% of control), MKK6(h).
102 % of control

----------
biological target: UniProt P00517; assay: Protein kinase selectivity panel; assay type: biochemical, bovine; conditions: 1.0 μM compound, 10 μM ATP
In this section we review reported Activity at Protein Kinase Assays (% of control), PKA(b) values for a set of compounds.

Examples from the recorded data:
Annotate the compound `O=C1NC(=O)C2=C1c1cn(c3ccccc13)CCCc1ccc(c(N3CCCC3)n1)CCCn1cc2c2ccccc21` with its measured Activity at Protein Kinase Assays (% of control), PKA(b).
105 % of control

Annotate the compound `CN(C)c1nc2ccc1CCCCn1cc(c3ccccc31)C1=C(C(=O)NC1=O)c1cn(c3ccccc13)CCC2` with its measured Activity at Protein Kinase Assays (% of control), PKA(b).
99 % of control

Annotate the compound `O=C1NC(=O)C2=C1c1cn(c3ccccc13)CCCc1cc(nc(N3CCCC3)c1)CCCn1cc2c2ccccc21` with its measured Activity at Protein Kinase Assays (% of control), PKA(b).
89 % of control

We next turn to a different compound, shown below.
Annotate the compound `CN(C)c1cc2cc(n1)CCCn1cc(c3ccccc31)C1=C(C(=O)NC1=O)c1cn(c3ccccc13)CCC2` with its measured Activity at Protein Kinase Assays (% of control), PKA(b).
107 % of control

----------
biological target: ZAP-70(h) (Homo sapiens, UniProt P43403); construct: purchased Upstate Cell Signaling Solutions (KinaseProfiler Selectivity Screening Service); experiment: Protein kinase selectivity panel; assay type: biochemical; details: 1.0 μM compound, 10 μM ATP
Sequence (P43403 whole entry): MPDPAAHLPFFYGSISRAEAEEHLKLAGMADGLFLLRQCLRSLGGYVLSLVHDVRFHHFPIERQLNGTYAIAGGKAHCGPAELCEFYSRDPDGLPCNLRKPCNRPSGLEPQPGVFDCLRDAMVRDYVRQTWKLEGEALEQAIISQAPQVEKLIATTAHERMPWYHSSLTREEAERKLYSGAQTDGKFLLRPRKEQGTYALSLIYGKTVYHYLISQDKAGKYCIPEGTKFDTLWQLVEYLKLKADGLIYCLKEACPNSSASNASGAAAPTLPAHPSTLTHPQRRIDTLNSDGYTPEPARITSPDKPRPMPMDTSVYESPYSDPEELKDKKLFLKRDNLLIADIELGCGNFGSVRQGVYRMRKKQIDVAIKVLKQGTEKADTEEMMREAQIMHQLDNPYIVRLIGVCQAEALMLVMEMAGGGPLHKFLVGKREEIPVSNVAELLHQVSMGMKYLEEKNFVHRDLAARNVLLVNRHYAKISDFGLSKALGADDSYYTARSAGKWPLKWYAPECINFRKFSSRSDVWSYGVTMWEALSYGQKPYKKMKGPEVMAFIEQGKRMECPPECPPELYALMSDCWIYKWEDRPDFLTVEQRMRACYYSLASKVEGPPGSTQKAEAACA
In this section we review reported Activity at Protein Kinase Assays (% of control), ZAP-70(h) values for a set of compounds.

Examples from the recorded data:
Annotate the compound `O=C1NC(=O)C2=C1c1cn(c3ccccc13)CCCc1cc(nc(N3CCCC3)c1)CCCn1cc2c2ccccc21` with its measured Activity at Protein Kinase Assays (% of control), ZAP-70(h).
115 % of control

Annotate the compound `CN(C)c1cc2cc(n1)CCCn1cc(c3ccccc31)C1=C(C(=O)NC1=O)c1cn(c3ccccc13)CCC2` with its measured Activity at Protein Kinase Assays (% of control), ZAP-70(h).
103 % of control

Annotate the compound `CN(C)c1nc2ccc1CCCCn1cc(c3ccccc31)C1=C(C(=O)NC1=O)c1cn(c3ccccc13)CCC2` with its measured Activity at Protein Kinase Assays (% of control), ZAP-70(h).
113 % of control

We next turn to a different compound, shown below.
Annotate the compound `O=C1NC(=O)C2=C1c1cn(c3ccccc13)CCCc1ccc(c(N3CCCC3)n1)CCCn1cc2c2ccccc21` with its measured Activity at Protein Kinase Assays (% of control), ZAP-70(h).
121 % of control

----------
biological target: PAR-1Bα(h) (Homo sapiens); test: Protein kinase selectivity panel; type: biochemical; settings: 1.0 μM compound, 10 μM ATP
Sequence (Q7KZI7 1-725 isoform Q7KZI7-4): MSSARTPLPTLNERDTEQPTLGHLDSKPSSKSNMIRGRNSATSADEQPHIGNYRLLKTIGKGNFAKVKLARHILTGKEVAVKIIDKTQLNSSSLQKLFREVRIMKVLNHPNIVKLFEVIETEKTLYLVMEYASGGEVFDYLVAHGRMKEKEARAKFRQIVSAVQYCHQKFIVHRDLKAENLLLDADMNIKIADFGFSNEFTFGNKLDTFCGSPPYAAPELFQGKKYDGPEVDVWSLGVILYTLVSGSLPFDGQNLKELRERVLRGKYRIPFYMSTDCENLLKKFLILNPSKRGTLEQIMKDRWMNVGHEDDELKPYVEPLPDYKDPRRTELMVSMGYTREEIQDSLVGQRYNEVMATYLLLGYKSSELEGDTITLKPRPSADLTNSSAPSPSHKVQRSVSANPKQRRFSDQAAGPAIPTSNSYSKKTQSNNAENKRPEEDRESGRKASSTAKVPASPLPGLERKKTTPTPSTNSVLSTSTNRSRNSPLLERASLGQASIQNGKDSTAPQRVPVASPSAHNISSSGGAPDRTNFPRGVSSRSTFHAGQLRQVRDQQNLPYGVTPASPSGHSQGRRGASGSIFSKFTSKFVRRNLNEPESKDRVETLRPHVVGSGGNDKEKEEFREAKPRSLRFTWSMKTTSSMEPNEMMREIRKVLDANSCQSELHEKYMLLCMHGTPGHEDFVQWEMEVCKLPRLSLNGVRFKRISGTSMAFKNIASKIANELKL
PROPERTY_LABEL: Activity at Protein Kinase Assays (% of control), PAR-1Bα(h)

Examples from the recorded data:
Please respond with reported Activity at Protein Kinase Assays (% of control), PAR-1Bα(h) (system PAR-1Bα(h) (Homo sapiens)) for `CN(C)c1nc2ccc1CCCCn1cc(c3ccccc31)C1=C(C(=O)NC1=O)c1cn(c3ccccc13)CCC2` .
94 % of control

Please respond with reported Activity at Protein Kinase Assays (% of control), PAR-1Bα(h) (system PAR-1Bα(h) (Homo sapiens)) for `O=C1NC(=O)C2=C1c1cn(c3ccccc13)CCCc1cc(nc(N3CCCC3)c1)CCCn1cc2c2ccccc21` .
96 % of control

Please respond with reported Activity at Protein Kinase Assays (% of control), PAR-1Bα(h) (system PAR-1Bα(h) (Homo sapiens)) for `O=C1NC(=O)C2=C1c1cn(c3ccccc13)CCCc1ccc(c(N3CCCC3)n1)CCCn1cc2c2ccccc21` .
101 % of control

We next turn to a different compound, shown below.
Please respond with reported Activity at Protein Kinase Assays (% of control), PAR-1Bα(h) (system PAR-1Bα(h) (Homo sapiens)) for `CN(C)c1cc2cc(n1)CCCn1cc(c3ccccc31)C1=C(C(=O)NC1=O)c1cn(c3ccccc13)CCC2` .
100 % of control

----------
target: MSK1(h) (Homo sapiens, UniProt O75582); test: Protein kinase selectivity panel; format: biochemical; details: 1.0 μM compound, 10 μM ATP
Sequence (O75582 whole entry): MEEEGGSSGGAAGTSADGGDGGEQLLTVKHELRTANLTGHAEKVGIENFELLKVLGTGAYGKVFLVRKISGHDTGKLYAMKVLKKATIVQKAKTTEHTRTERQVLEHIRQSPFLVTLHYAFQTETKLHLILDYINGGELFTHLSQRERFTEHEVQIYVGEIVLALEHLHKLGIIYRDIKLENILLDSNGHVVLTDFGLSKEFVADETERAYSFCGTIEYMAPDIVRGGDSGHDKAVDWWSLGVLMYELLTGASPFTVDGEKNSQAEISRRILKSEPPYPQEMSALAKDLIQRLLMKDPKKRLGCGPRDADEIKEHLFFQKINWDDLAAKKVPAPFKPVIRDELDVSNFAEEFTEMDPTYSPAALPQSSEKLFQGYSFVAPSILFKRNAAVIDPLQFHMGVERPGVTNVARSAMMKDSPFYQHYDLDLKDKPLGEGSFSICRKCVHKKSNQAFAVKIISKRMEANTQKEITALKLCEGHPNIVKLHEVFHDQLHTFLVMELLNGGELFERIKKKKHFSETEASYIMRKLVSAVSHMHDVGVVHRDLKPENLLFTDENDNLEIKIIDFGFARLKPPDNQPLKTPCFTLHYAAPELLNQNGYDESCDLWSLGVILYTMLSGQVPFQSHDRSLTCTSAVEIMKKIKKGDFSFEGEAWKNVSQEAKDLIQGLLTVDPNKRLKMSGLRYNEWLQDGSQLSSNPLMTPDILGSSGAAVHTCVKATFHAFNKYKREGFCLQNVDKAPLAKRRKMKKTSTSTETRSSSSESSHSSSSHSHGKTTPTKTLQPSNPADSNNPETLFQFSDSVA
PROPERTY_LABEL: Activity at Protein Kinase Assays (% of control), MSK1(h)

Annotate the molecule `CN(C)c1cc2cc(n1)CCCn1cc(c3ccccc31)C1=C(C(=O)NC1=O)c1cn(c3ccccc13)CCC2` with its measured Activity at Protein Kinase Assays (% of control), MSK1(h).
58 % of control

Others:
Annotate the molecule `O=C1NC(=O)C2=C1c1cn(c3ccccc13)CCCc1ccc(c(N3CCCC3)n1)CCCn1cc2c2ccccc21` with its measured Activity at Protein Kinase Assays (% of control), MSK1(h).
104 % of control

Annotate the molecule `CN(C)c1nc2ccc1CCCCn1cc(c3ccccc31)C1=C(C(=O)NC1=O)c1cn(c3ccccc13)CCC2` with its measured Activity at Protein Kinase Assays (% of control), MSK1(h).
36 % of control

Annotate the molecule `O=C1NC(=O)C2=C1c1cn(c3ccccc13)CCCc1cc(nc(N3CCCC3)c1)CCCn1cc2c2ccccc21` with its measured Activity at Protein Kinase Assays (% of control), MSK1(h).
38 % of control

----------
In this section we review reported Activity at Protein Kinase Assays (% of control), CHK2(h) values for a set of compounds.
target: CHK2(h) (Homo sapiens); test: Protein kinase selectivity panel; type: biochemical; details: 1.0 μM compound, 10 μM ATP
Sequence (O96017 whole entry): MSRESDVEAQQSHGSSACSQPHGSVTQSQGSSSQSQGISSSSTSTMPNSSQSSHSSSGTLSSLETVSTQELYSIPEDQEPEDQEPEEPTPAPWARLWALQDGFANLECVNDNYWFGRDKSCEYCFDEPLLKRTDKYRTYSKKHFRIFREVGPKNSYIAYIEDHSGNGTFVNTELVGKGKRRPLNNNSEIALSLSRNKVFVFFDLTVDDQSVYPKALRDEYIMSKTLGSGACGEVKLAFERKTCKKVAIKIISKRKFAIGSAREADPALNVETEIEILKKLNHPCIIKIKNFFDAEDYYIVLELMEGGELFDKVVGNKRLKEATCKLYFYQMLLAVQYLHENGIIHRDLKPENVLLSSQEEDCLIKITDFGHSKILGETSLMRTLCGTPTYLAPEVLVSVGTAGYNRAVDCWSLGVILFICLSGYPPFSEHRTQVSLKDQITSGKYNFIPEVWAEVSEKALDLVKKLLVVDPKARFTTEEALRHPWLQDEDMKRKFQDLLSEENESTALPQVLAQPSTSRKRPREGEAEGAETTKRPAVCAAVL

Annotate the compound `O=C1NC(=O)C2=C1c1cn(c3ccccc13)CCCc1cc(nc(N3CCCC3)c1)CCCn1cc2c2ccccc21` with its measured Activity at Protein Kinase Assays (% of control), CHK2(h).
84 % of control

Annotate the compound `CN(C)c1nc2ccc1CCCCn1cc(c3ccccc31)C1=C(C(=O)NC1=O)c1cn(c3ccccc13)CCC2` with its measured Activity at Protein Kinase Assays (% of control), CHK2(h).
91 % of control

Annotate the compound `O=C1NC(=O)C2=C1c1cn(c3ccccc13)CCCc1ccc(c(N3CCCC3)n1)CCCn1cc2c2ccccc21` with its measured Activity at Protein Kinase Assays (% of control), CHK2(h).
91 % of control

We next turn to a different compound, shown below.
Annotate the compound `CN(C)c1cc2cc(n1)CCCn1cc(c3ccccc31)C1=C(C(=O)NC1=O)c1cn(c3ccccc13)CCC2` with its measured Activity at Protein Kinase Assays (% of control), CHK2(h).
94 % of control

----------
Target: PKBα(h) (Homo sapiens, UniProt P31749)
Sequence (P31749 whole entry): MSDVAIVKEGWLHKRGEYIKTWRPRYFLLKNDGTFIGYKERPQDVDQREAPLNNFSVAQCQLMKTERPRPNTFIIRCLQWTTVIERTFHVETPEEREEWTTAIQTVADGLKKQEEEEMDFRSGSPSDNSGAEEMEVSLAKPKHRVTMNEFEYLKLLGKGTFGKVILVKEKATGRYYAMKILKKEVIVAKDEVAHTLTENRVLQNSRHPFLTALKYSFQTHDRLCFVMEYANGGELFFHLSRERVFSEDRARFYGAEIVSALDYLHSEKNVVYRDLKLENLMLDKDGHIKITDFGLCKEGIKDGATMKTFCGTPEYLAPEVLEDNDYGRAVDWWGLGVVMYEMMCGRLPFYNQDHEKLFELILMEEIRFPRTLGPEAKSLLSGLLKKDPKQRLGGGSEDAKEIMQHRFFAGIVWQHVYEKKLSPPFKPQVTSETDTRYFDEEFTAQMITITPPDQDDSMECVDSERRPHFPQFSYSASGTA
Test: Protein kinase selectivity panel
Format: biochemical
Conditions: 1.0 μM compound, 10 μM ATP
Method: Protein kinase selectivity assays were performed as described in the scientific literature (Davies, S. P., et al., Biochem. J. 2000, 351, 95-105). Briefly, protein kinases were assayed for their ability to phosphorylate the appropriate peptide/protein substrates in the presence of 1.0 μM compound. Assays were done using 10 μM ATP and were linear with respect to time. […]
PROPERTY_LABEL: Activity at Protein Kinase Assays (% of control), PKBα(h)

Examples from the recorded data:
Annotate the compound `O=C1NC(=O)C2=C1c1cn(c3ccccc13)CCCc1cc(nc(N3CCCC3)c1)CCCn1cc2c2ccccc21` with its measured Activity at Protein Kinase Assays (% of control), PKBα(h).
112 % of control

Annotate the compound `CN(C)c1nc2ccc1CCCCn1cc(c3ccccc31)C1=C(C(=O)NC1=O)c1cn(c3ccccc13)CCC2` with its measured Activity at Protein Kinase Assays (% of control), PKBα(h).
94 % of control

Others:
Annotate the compound `CN(C)c1cc2cc(n1)CCCn1cc(c3ccccc31)C1=C(C(=O)NC1=O)c1cn(c3ccccc13)CCC2` with its measured Activity at Protein Kinase Assays (% of control), PKBα(h).
114 % of control

Annotate the compound `O=C1NC(=O)C2=C1c1cn(c3ccccc13)CCCc1ccc(c(N3CCCC3)n1)CCCn1cc2c2ccccc21` with its measured Activity at Protein Kinase Assays (% of control), PKBα(h).
106 % of control

Measured values drawn from patent US7759331B2 for this set.
